Listed next: entries and their corresponding half-life.
assay: Microsomal stability assay; assay type: in vitro ADME; conditions: pH 7.4; mouse liver microsomes, 37° C.
Respond with the bare value in min.

Worked examples follow.
- Cc1cc(OCc2c(-c3c(Cl)cccc3Cl)noc2C(C)C)cnc1Oc1ccc(C(=O)O)cc1 [Example 3]: 30
- CC(C)c1onc(-c2c(Cl)cccc2Cl)c1COc1ccc(Oc2ccc(C(=O)O)cc2)cc1 [Compound A, reference compound]: 22

Turning now to a further compound:
Value of measured half-life for the entry CC(C)c1onc(-c2c(Cl)cccc2Cl)c1COc1ccc(Oc2ccc(C(=O)NS(C)(=O)=O)cc2)cn1 [Example 4] : 30

###

test: Determination of pharmacokinetic parameters in mice (oral cassette dosing); format: in vivo; settings: male, mouse, plasma; sampling time 240 min; C57BL/6 mice, po 5 mg/kg, cassette; read-out: mean plasma conc.
A collection of molecules and their measured concentration at 240 min
The figure you give is taken to be in ng/mL; do not add the unit.

* CC(C)c1onc(-c2c(Cl)cccc2Cl)c1COc1ccc(Oc2ccc(C(=O)O)cc2)cc1 [Compound A, reference compound] | 15

Next up:
Recorded result, Cc1cc(OCc2c(-c3c(Cl)cccc3Cl)noc2C(C)C)cnc1Oc1ccc(C(=O)O)cc1 [Example 3] , concentration at 240 min: 63

###

assay: PAMPA permeability assay; assay type: in vitro ADME; settings: % of compound found in the receiver compartment after 16 hours; PBS pH 7.4, 5% DMSO, 23° C.
property_name: PAMPA Permeability (%)
Just the number in %, nothing appended.

• CC(C)c1onc(-c2c(Cl)cccc2Cl)c1COc1ccc(Oc2ccc(C(=O)O)cc2)cn1 [Example 1] = 54

Lab note: measured PAMPA Permeability of CC(C)c1onc(-c2c(Cl)cccc2Cl)c1COc1ccc(/C=C/c2cccc(C(=O)O)c2)c(Cl)c1 [Compound B, reference compound] was 7

The compound listed as CC(C)c1onc(-c2c(Cl)cccc2Cl)c1COc1ccc(Oc2ccc(C(=O)O)cc2)cc1 [Compound A, reference compound] has a reported PAMPA Permeability of 32

// sample CC(C)c1onc(-c2c(Cl)cccc2Cl)c1COc1ccc(Oc2cccc(C(=O)O)c2)cn1 [Example 2] , its PAMPA Permeability was 43

###

List of concentration at 480 min values.
experiment: Determination of pharmacokinetic parameters in mice (oral cassette dosing); assay type: in vivo; conditions: male, mouse, plasma; sampling time 480 min; C57BL/6 mice, po 5 mg/kg, cassette; read-out: mean plasma conc.
Report the value in ng/mL with no unit label.

- Cc1cc(OCc2c(-c3c(Cl)cccc3Cl)noc2C(C)C)cnc1Oc1ccc(C(=O)O)cc1: 20

Turning now to a further record.
Summary for this molecule, CC(C)c1onc(-c2c(Cl)cccc2Cl)c1COc1ccc(Oc2ccc(C(=O)O)cc2)cc1 [Compound A, reference compound] : concentration at 480 min is 8

###

assay: Determination of pharmacokinetic parameters in mice (oral cassette dosing); format: in vivo; details: male, mouse, plasma; C57BL/6 mice, po 5 mg/kg
property_name: Cmax (ng/mL)
Note: unit ng/mL is implicit; provide only the numeric part.

* Cc1cc(OCc2c(-c3c(Cl)cccc3Cl)noc2C(C)C)cnc1Oc1ccc(C(=O)O)cc1 | 904

In the following, a different compound is considered.
The reported Cmax of the compound CC(C)c1onc(-c2c(Cl)cccc2Cl)c1COc1ccc(Oc2ccc(C(=O)O)cc2)cc1 [Compound A, reference compound] was 120
